Target: PRMT5 (Homo sapiens, UniProt O14744)
Construct: purchased Viva (custom protein)
Sequence (O14744 whole entry): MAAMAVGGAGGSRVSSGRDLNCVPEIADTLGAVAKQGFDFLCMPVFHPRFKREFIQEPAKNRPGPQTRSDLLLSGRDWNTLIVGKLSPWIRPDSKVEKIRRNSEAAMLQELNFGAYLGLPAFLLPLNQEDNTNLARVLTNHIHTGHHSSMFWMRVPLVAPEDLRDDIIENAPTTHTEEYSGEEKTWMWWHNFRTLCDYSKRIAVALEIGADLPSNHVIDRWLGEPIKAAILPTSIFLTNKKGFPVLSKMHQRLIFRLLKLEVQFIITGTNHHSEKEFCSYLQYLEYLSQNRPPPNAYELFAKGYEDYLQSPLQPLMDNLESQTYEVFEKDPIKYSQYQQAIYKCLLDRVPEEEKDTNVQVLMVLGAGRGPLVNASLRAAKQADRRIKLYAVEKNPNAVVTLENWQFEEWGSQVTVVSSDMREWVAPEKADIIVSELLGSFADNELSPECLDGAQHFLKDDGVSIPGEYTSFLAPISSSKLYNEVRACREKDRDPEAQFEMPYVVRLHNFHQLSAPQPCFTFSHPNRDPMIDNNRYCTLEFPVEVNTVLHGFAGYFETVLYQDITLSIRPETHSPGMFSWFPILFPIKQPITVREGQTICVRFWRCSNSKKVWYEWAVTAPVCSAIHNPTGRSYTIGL
Sequence (Q9BQA1 whole entry partner): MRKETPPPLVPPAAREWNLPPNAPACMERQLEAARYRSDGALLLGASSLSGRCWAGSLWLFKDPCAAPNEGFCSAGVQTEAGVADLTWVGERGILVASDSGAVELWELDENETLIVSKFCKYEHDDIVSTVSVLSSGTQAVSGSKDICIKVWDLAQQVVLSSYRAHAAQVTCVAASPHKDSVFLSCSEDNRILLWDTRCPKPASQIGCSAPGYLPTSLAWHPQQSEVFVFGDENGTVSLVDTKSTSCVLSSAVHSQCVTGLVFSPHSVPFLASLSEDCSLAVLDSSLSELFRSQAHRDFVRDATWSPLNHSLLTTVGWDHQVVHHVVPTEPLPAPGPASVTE
Experiment: PRMT5 biochemical IC50 assay with no cofactor
Settings: PRMT5, no cofactor; read-out: No Cofactor/rel IC50
metricName: IC50

Query :: Missing value: IC50, PRMT5 (Homo sapiens, UniProt O14744), entry COc1ncc(NC(=O)C(=O)N2C[C@H](C)CC[C@H]2c2ccc(NS(C)(=O)=O)cc2)cc1C(N)=O (single isomer, unassigned) . Fill in?
Result :: < 50 nM

* * *

Target: PRMT5 (Homo sapiens)
Construct: purchased Viva (custom protein)
Test: PRMT5 biochemical IC50 assay with no cofactor
Conditions: PRMT5, no cofactor; read-out: No Cofactor/rel IC50
pIC50: −log10 of the molar value.
Parameter: pIC50. Scope: all listed entries.

[
  {
    "molecule": "COc1ncc(NC(=O)C(=O)N2C[C@@H](C)CC[C@@H]2c2ccc3sc(C)nc3c2)cc1C(N)=O (single isomer, unassigned) [Compound 797]",
    "testTarget": "PRMT5 (Homo sapiens)",
    "pIC50": "> 7.30"
  },
  {
    "molecule": "C[C@@H]1CC[C@@H](c2ccc(Cn3ccnc3)cc2)N(C(=O)C(=O)Nc2cncc(C(N)=O)c2)C1 (racemic) [Compound 238]",
    "testTarget": "PRMT5 (Homo sapiens)",
    "pIC50": "6.30 to 7.30"
  },
  {
    "molecule": "C[C@H]1CC[C@H](c2ccc(C(F)(F)F)cc2)N(C(=O)C(=O)Nc2cncc(C(N)=O)c2)C1 (single isomer, unassigned) [Compound 511]",
    "testTarget": "PRMT5 (Homo sapiens)",
    "pIC50": "6.30 to 7.30"
  }
]

Query :: Under PRMT5 (Homo sapiens): pIC50 value of CCc1cc(NC(=O)C(=O)N2C[C@@H](C)CC[C@@H]2c2ccc3sc(C4CC5CCC(C4)N5C)nc3c2)cnc1N (stereo partly drawn) [Compound 1187] ?
Result :: > 7.30

Query :: Find pIC50 (PRMT5 (Homo sapiens)) for the entry C[C@@H]1CC[C@@H](c2ccc(Cl)cc2)N(C(=O)C(=O)Nc2cncc(C(N)=O)c2)C1 (single isomer, unassigned) [Compound 570]
Result :: 6.30 to 7.30

Query :: Enter reported pIC50 observed with PRMT5 (Homo sapiens) for CCc1cc(NC(=O)C(=O)N2C[C@@H](C)CC[C@@H]2c2ccc3sc(C4CCN(C5COC5)CC4)nc3c2)cnc1N [Compound 1224]
Result :: > 7.30

Query :: Param readout = pIC50; param system = PRMT5 (Homo sapiens); param query = Cc1cc(NC(=O)C(=O)N2C[C@H](C)CC[C@H]2c2ccc(CCN(C)C)cc2)cnc1N (racemic) [Compound 1233] ; response: value
Result :: 6.30 to 7.30

Query :: Hi! What's the reported pIC50 for Cc1cc(NC(=O)C(=O)N2C[C@H](C)CC[C@H]2c2cncc(Cl)c2)cnc1N (racemic) [Compound 1025] on PRMT5 (Homo sapiens)?
Result :: 6.30 to 7.30

Query :: Lookup: pIC50 / PRMT5 (Homo sapiens) / NC(=O)c1cncc(NC(=O)C(=O)N2CC[C@@]3(O)CCCC[C@H]3C2)c1 (racemic) [Compound 421]
Result :: < 6.30

Query :: # value lookup — system PRMT5 (Homo sapiens), readout pIC50, item CCc1cc(NC(=O)C(=O)N2C[C@@H](C)CC[C@@H]2c2ccc3sc([C@H]4CN(C)CCO4)nc3c2)cnc1N [Compound 1202]
Result :: > 7.30

Query :: Value wanted: pIC50 (PRMT5 (Homo sapiens)) of entry CCc1cc(NC(=O)C(=O)N2C[C@H](C)CC[C@H]2c2ccc(C(=O)NC)s2)cnc1N (single isomer, unassigned) [Compound 835]
Result :: < 6.30

Query :: Form field: pIC50 recorded for Cc1cc(NC(=O)C(=O)N2C[C@H](C)CC[C@H]2C2CCNCC2)cnc1N (racemic) [Compound 708] with PRMT5 (Homo sapiens) (enter value)
Result :: < 6.30

Query :: Which measured pIC50 belongs to Cc1cc(NC(=O)C(=O)N2C[C@@H](C)CC[C@@H]2c2ccc3nn(C)cc3c2)cnc1N (single isomer, unassigned) [Compound 1040] , tested on PRMT5 (Homo sapiens)?
Result :: < 6.30

Query :: Any idea what pIC50 came out for Cc1cc(NC(=O)C(=O)N2C[C@H](C)CC[C@H]2c2ccc3c(c2)CCC(=O)N3)cnc1C(F)(F)F (racemic) [Compound 650] on PRMT5 (Homo sapiens)?
Result :: 6.30 to 7.30

Query :: Lookup: pIC50 / PRMT5 (Homo sapiens) / C[C@@H]1CC[C@H](c2cc(F)cc(Cl)c2)N(C(=O)C(=O)Nc2cncc(C(N)=O)c2)C1 (single isomer, unassigned) [Compound 625]
Result :: < 6.30

* * *

Biological target: PRMT5 (Homo sapiens, UniProt O14744)
Construct: purchased Viva (custom protein)
Experiment: PRMT5 biochemical IC50 assay with no cofactor
Details: PRMT5, no cofactor; read-out: No Cofactor/rel IC50
pIC50: −log10 of the molar value.
List of pIC50 values.

For orientation, consider the following solved cases.
[
  {
    "compound": "CCc1cc(NC(=O)C(=O)N2C[C@@H](C)CC[C@@H]2c2ccc3sc(C4CN(C)C4)nc3c2)cnc1N",
    "pIC50": "> 7.30"
  },
  {
    "compound": "C[C@@H]1C[C@H](C)[C@@H](c2ccccc2)N(C(=O)C(=O)Nc2cncc(C(N)=O)c2)C1 (single isomer, unassigned)",
    "pIC50": "6.30 to 7.30"
  },
  {
    "compound": "Cc1cc(NC(=O)C(=O)N2C[C@@H](C)CC[C@@H]2c2cc3[nH]ncc3s2)cnc1N (single isomer, unassigned)",
    "pIC50": "> 7.30"
  }
]

Query :: Return pIC50 measured with PRMT5 (Homo sapiens, UniProt O14744) given this compound: Cc1cncc(NC(=O)C(=O)N2CCCCC2c2ccccc2)c1N (centres unmarked)
Result :: < 6.30

Query :: Could you share what pIC50 was measured for COc1ccc([C@@H]2CC[C@@H](C)CN2C(=O)C(=O)Nc2cncc(C(N)=O)c2)cc1OC (racemic) , tested on PRMT5 (Homo sapiens, UniProt O14744)?
Result :: 6.30 to 7.30

Query :: Please provide the recorded pIC50 for COc1ncc(NC(=O)C(=O)N2C[C@@H](C)CC[C@@H]2c2ccc(F)cc2)cc1C(N)=O (single isomer, unassigned) , tested on PRMT5 (Homo sapiens, UniProt O14744).
Result :: < 6.30

Query :: # value lookup — system PRMT5 (Homo sapiens, UniProt O14744), readout pIC50, item C[C@H]1CC[C@H](c2ccc(NS(C)(=O)=O)nc2)N(C(=O)C(=O)Nc2cncc(C(N)=O)c2)C1 (single isomer, unassigned)
Result :: < 6.30

Query :: Which measured pIC50 belongs to C[C@H]1CC[C@H](c2cc(Cl)cc(Cl)c2)N(C(=O)C(=O)Nc2cncc(C(N)=O)c2)C1 (single isomer, unassigned) , tested on PRMT5 (Homo sapiens, UniProt O14744)?
Result :: 6.30 to 7.30

Query :: Checklist item: pIC50 tested on PRMT5 (Homo sapiens, UniProt O14744), entry COc1ncc(NC(=O)C(=O)N2CCCCC2C2CCCC2)cc1C(N)=O (single isomer, unassigned) [Compound 294] , value?
Result :: 6.30 to 7.30

Query :: Provide value of pIC50 for this record tested with PRMT5 (Homo sapiens, UniProt O14744): C[C@H]1CC[C@H](c2ccc3cncn3c2)N(C(=O)C(=O)Nc2cnc(N)c(C3CC3)c2)C1 (single isomer, unassigned)
Result :: > 7.30

Query :: Give recorded pIC50 with PRMT5 (Homo sapiens, UniProt O14744) for the following compound: Cc1c(NC(=O)C(=O)N2C[C@@H](C)CC[C@@H]2c2ccc(O)cc2)cnc(N)c1C (single isomer, unassigned)
Result :: 6.30 to 7.30

* * *

Biological target: PRMT5 (Homo sapiens)
Construct: purchased Viva (custom protein)
Experiment: PRMT5 biochemical IC50 assay with no cofactor
Conditions: PRMT5, no cofactor; read-out: No Cofactor/rel IC50
This section presents compounds with their documented IC50 values.

Known IC50 results, listed for orientation:
[
  {
    "compound": "Cc1cc(NC(=O)C(=O)N2C[C@H](C)CC[C@H]2c2cccc(S(C)(=O)=O)c2)cnc1N (single isomer, unassigned) [Compound 895]",
    "testTarget": "PRMT5 (Homo sapiens)",
    "observedValue": "50 to 500 nM"
  },
  {
    "compound": "C[C@@H]1CC[C@@H](c2cc(F)cc(Cl)c2)N(C(=O)C(=O)Nc2cncc(C(N)=O)c2)C1 (single isomer, unassigned)",
    "testTarget": "PRMT5 (Homo sapiens)",
    "observedValue": "> 500 nM"
  },
  {
    "compound": "C[C@H]1CC[C@H](c2cc(F)cc(Cl)c2)N(C(=O)C(=O)Nc2cncc(C(N)=O)c2)C1 (single isomer, unassigned)",
    "testTarget": "PRMT5 (Homo sapiens)",
    "observedValue": "50 to 500 nM"
  },
  {
    "compound": "C[C@@H]1CC[C@@H](c2cccc(C(F)F)c2)N(C(=O)C(=O)Nc2cncc(C(N)=O)c2)C1 (racemic)",
    "testTarget": "PRMT5 (Homo sapiens)",
    "observedValue": "50 to 500 nM"
  },
  {
    "compound": "CCc1cc(NC(=O)C(=O)N2C[C@@H](C)CC[C@@H]2c2cccc(OC[C@@H]3CCN(C)C3)c2)cnc1N",
    "testTarget": "PRMT5 (Homo sapiens)",
    "observedValue": "< 50 nM"
  }
]

Consider the record given below.
Query :: Give recorded IC50 with PRMT5 (Homo sapiens) for the following compound: CCc1cc(NC(=O)C(=O)N2C[C@H](C)CC[C@H]2c2ccn(-c3cc[nH]n3)n2)cnc1N (single isomer, unassigned)
Result :: 50 to 500 nM
